# testedOn: UniProt P10636
# assayOverview: MCE Phenols Library screening, tau biosensor cell seeding assay (AvZ)
# Format: cell-based
# measurementParameters: puncta, replicate 1
assayMetric: raw data 1
Give bare numbers.

molecule	raw data 1
O=C(/C=C/c1ccc(O)c(O)c1)c1ccc(O)cc1O	23813.7

# return raw data 1 for each item in the list
1. COc1cc(C[C@@H](CO)[C@H](CO)Cc2ccc(O)c(OC)c2)ccc1O [(+)-Secoisolariciresinol]
2. O=C1c2c(O)cc(O)cc2O[C@H](c2ccc(O)cc2)[C@H]1O [Dihydrokaempferol]

1: 30111.3; 2: 24585.9

Items follow; give raw data 1 for each.
1. COc1cc(/C=C/c2ccc(O)c(O)c2)cc(OC)c1 [3'-Hydroxypterostilbene]
2. COc1cc(O)c(C(=O)/C=C/c2ccc(O)cc2)cc1CC=C(C)C
3. O=C(O)c1cccc(O)c1 [3-Hydroxybenzoic acid]
4. OC[C@H]1O[C@@H](Oc2ccc(O)cc2)[C@H](O)[C@@H](O)[C@@H]1O [Arbutin]
5. COc1cc(-c2coc3cc(O[C@@H]4O[C@H](CO)[C@@H](O)[C@H](O)[C@H]4O)c(OC)c(O)c3c2=O)ccc1O

1. 24671.3
2. 22607.8
3. 17360.5
4. 18360
5. 22827.1

---

# testedOn: tau (Homo sapiens, UniProt P10636)
# Sequence (P10636 623-695 limits assumed): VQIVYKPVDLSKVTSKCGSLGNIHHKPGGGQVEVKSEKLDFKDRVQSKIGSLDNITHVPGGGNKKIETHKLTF
# assayOverview: MCE Phenols Library screening, tau biosensor cell seeding assay (AvZ)
# Type: cell-based
# measurementParameters: Z score, replicate 1
Values of Z repl 1 greater than or equal to 0.09 map to fulfilled; values below map to not fulfilled.

Below are worked cases with known answers.
compound	discreteLabel
O=C(/C=C/c1ccc(O)c(O)c1)c1ccc(O)c(O)c1O	not fulfilled
COc1ccc(C=O)cc1O	not fulfilled
N[C@@H](Cc1ccc(O)c(Cl)c1)C(=O)O	fulfilled
COc1cc(OC)c(CCC(=O)c2ccc(O)cc2)c(OC)c1	fulfilled
Oc1cc(O)c2c(c1)O[C@H](c1cc(O)c(O)c(O)c1)[C@@H](O)C2 [(+)-Gallocatechin]	not fulfilled
COC(=O)Cc1ccc(O)cc1 [Methyl 4-hydroxyphenylacetate]	not fulfilled

Can COc1cc(/C=C/CO)ccc1O be said to have Z repl 1 at or above 0.09?
fulfilled

Confirm if Z repl 1 reported for the compound CC(=O)Oc1ccc(/C=C/c2cc(OC(C)=O)cc(OC(C)=O)c2)cc1 is 0.09 or above.
not fulfilled

---

# testedOn: tau (Homo sapiens, UniProt P10636)
# assayOverview: MCE Phenols Library screening, tau biosensor cell seeding assay (AvZ)
# Format: cell-based
# measurementParameters: average puncta of the two replicates
Kindly supply the reported av puncta values for the records listed here.
One number for each entry.

compound	assayMetric	reported
COc1cc(O)cc(/C=C/c2ccc(O)cc2)c1	av puncta	16345.6
COc1ccc(-c2oc3c(CCC(C)(C)O)c(O[C@@H]4O[C@H](CO)[C@@H](O)[C@H](O)[C@H]4O)cc(O)c3c(=O)c2O)cc1 [Maohuoside A]	av puncta	13854.4
CCCCCCC[C@H](O)CC(=O)CCc1ccc(O)c(OC)c1	av puncta	17076
CC[C@H]1CN2CCc3cc(OC)c(OC)cc3[C@@H]2C[C@@H]1C[C@H]1NCCc2cc(O)c(OC)cc21.Cl.Cl [Cephaeline (dihydrochloride)]	av puncta	14823.1
Oc1ccc2c(c1)OC[C@]1(O)Cc3cc(O)c(O)cc3[C@H]21	av puncta	12203.7

Count: 3. Required value per item: av puncta.
1. COC(=O)/C=C/c1ccc(O)c(O)c1 [Methyl caffeate]
2. COc1cc(/C=C/C(=O)OC(C)C)ccc1O [Isopropyl ferulate]
3. OC[C@H]1O[C@@H](Oc2cc(O)cc(/C=C/c3ccc(O[C@@H]4O[C@H](CO)[C@@H](O)[C@H](O)[C@H]4O)cc3O)c2)[C@H](O)[C@@H](O)[C@@H]1O [Mulberroside A]

1: 15550.1; 2: 16119; 3: 16641.5

---

# testedOn: UniProtKB P10636
# assayOverview: MCE Phenols Library screening, tau biosensor cell seeding assay (AvZ)
# Assay type: cell-based
# measurementParameters: puncta, replicate 1
assayMetric: raw data 1
Numbers only.

Record excerpt, results attached:
compound	testedOn	raw data 1
CC(C)=CCc1cc2c(=O)cc(-c3ccc(O)cc3)oc2cc1O	UniProtKB P10636	38768.9
Cc1ccc(C(C)C)cc1O	UniProtKB P10636	32834.5
O=C(OC[C@H]1OC(OC(=O)c2cc(O)c(O)c(O)c2)[C@H](OC(=O)c2cc(O)c(O)c(O)c2)[C@@H](OC(=O)c2cc(O)c(O)c(O)c2)[C@@H]1O)c1cc(O)c(O)c(O)c1 (stereo partly drawn)	UniProtKB P10636	5324.12
COc1cc(OC)c(CCC(=O)c2ccc(O)cc2)c(OC)c1	UniProtKB P10636	38536.8
O=C(c1ccc(O)cc1)c1c(O)cc(O)c([C@@H]2O[C@H](CO)[C@@H](O)[C@H](O)[C@H]2O)c1O [Iriflophenone 3-C-glucoside]	UniProtKB P10636	33866.6

Below are 4 compounds. Give each one its raw data 1.
1. CC(C)c1ccc2c(c1O)CC[C@H]1C3=C(CC[C@]21C)C(=O)OC3 [Triptophenolide]
2. COc1cc(O)c(C(=O)/C=C/c2ccccc2)c(OC)c1
3. O=c1c(O[C@@H]2O[C@H](CO)[C@@H](O)[C@H](O)[C@H]2O)c(-c2ccc(O)c(O)c2)oc2cc(O[C@@H]3O[C@H](CO[C@@H]4O[C@H](CO)[C@@H](O)[C@H](O)[C@H]4O)[C@@H](O)[C@H](O)[C@H]3O)cc(O)c12
4. O=C(O)C[C@@H]1C(=O)O[C@H]2[C@@H]3OC(=O)c4cc(O)c(O)c(O)c4-c4c(cc(O)c(O)c4O)C(=O)OC[C@H]2O[C@@H](OC(=O)c2cc(O)c(O)c(O)c2)[C@@H]3OC(=O)c2cc(O)c(O)c3c2[C@H]1[C@H](O)C(=O)O3

1: 31418; 2: 22793.1; 3: 19599.6; 4: 523.863

// for each compound in input: emit raw data 1
1. O=C(/C=C/c1ccc(O)c2c1[C@H](C(=O)O)[C@@H](c1ccc(O)c(O)c1)O2)O[C@H](Cc1ccc(O)c(O)c1)C(=O)O
2. O=C1C=CC(=O)c2c(O)ccc(O)c21

1. 10304.3
2. 23991

Batch request: raw data 1 per item, same order as input.
1. COc1ccc(-c2coc3cc(O)ccc3c2=O)cc1O
2. COc1c2ccoc2nc2c(O)cccc12
3. CC(=O)c1c(O)c(C)c(O)c(Cc2c(O)c3c(c(C(=O)/C=C/c4ccccc4)c2O)OC(C)(C)C=C3)c1O

1: 30989.7; 2: 29833.7; 3: 29908.4

Specify reported raw data 1 for the compound shown: COc1cc2oc(-c3ccccc3)cc(=O)c2c(O)c1O
14234.4

---

# testedOn: tau (Homo sapiens, UniProt P10636)
# assayOverview: MCE Phenols Library screening, tau biosensor cell seeding assay (AvZ)
# Type: cell-based
# measurementParameters: raw puncta, replicate 1
Kindly supply the reported raw data 1 values for the records listed here.
One number for each entry.

compound	testedOn	raw data 1
CC1OC(OCC2OC(Oc3c(-c4ccc(O)cc4)oc4cc(OC5OC(C)C(O)C(O)C5O)cc(O)c4c3=O)C(O)C(O)C2O)C(O)C(O)C1O (stereo not drawn) [Robinin]	tau (Homo sapiens, UniProt P10636)	26593.3
COc1cc(CCO[C@@H]2O[C@H](CO[C@@H]3O[C@H](CO)[C@@H](O)[C@H](O)[C@H]3O)[C@@H](OC(=O)/C=C/c3ccc(O)c(O)c3)[C@H](O[C@@H]3O[C@@H](C)[C@H](O)[C@@H](O)[C@H]3O)[C@H]2O)ccc1O [Cistanoside A]	tau (Homo sapiens, UniProt P10636)	21923.2

Next compound, please.
Specify measured raw data 1 for COc1cc(CCN)ccc1O [3-Methoxytyramine] .
26971.9

---

# testedOn: tau (Homo sapiens, UniProt P10636)
# assayOverview: MCE Phenols Library screening, tau biosensor cell seeding assay (AvZ)
# Type: cell-based
# measurementParameters: puncta, replicate 2
assayMetric: raw data 2
Give bare numbers.

# annotated cases, reported raw data 2 shown
compound	raw data 2
CC[C@@]1(O)C(=O)OCc2c1cc1n(c2=O)Cc2cc3cc(O)ccc3nc2-1 [(S)-10-Hydroxycamptothecin]	31944.1
O=C(O[C@@H]1Cc2c(O)cc(O)cc2O[C@H]1c1cc(O)c(O)c(O)c1)c1cc(O)c(O)c(O)c1 [(-)-Gallocatechin gallate]	87.382
COc1cc(-c2cc(=O)c3c(O)c(OC)c(O)cc3o2)cc(O)c1OC	10181.7
O=C(O)Cc1cccc(O)c1 [3-Hydroxyphenylacetic acid]	10440

Quick request: raw data 2 for each listed item, please.
1. O=c1cc(-c2ccccc2)oc2c(O)c(O)ccc12 [7,8-Dihydroxyflavone]
2. COc1c(O)cc2c(c1O)[C@@H]1O[C@H](CO)[C@@H](O)[C@H](O)[C@H]1OC2=O

1. 22676
2. 7026.42

Name the recorded raw data 2 of the item C[C@@H]1O[C@@H](OC[C@H]2O[C@@H](OCCc3ccc(O)c(O)c3)[C@H](O)[C@@H](O)[C@@H]2OC(=O)/C=C/c2ccc(O)c(O)c2)[C@H](O)[C@H](O)[C@H]1O [Forsythiaside A] in your answer.
7514.37
